# credit: PubChem BioAssay AID2252

# Test system: THP-1 viability, CellTiter-Glo luminescence, 72 h
# experimental_protocol: PubChem AID 2252
observable: EC50

Quick note, EC50 for `[O-][n+]1c2c(c3c4non(O)c4ccc31)CCCC2` landed at 47.7 µM

Field EC50 (entry `CC[n+]1c(/C=C/C=C/c2ccc(N(C)C)cc2)sc2ccccc21` ) reads 1.43 µM

According to the records, this molecule `CCCN(CCC)CCNC(=O)C1CCN(Cc2nc(-c3ccc(Cl)cc3)oc2C)CC1` displays EC50 of 24.8 µM

COc1ccc(C(C[N+](=O)[O-])C2(c3ccc(OC)c(OC)c3)C(=O)c3ccccc3C2=O)cc1 (stereo unspecified) has a reported EC50 of 9.85 µM

Short answer for `Oc1ccc(N=Nc2ccc(Br)cc2)c(O)c1` : EC50 was 17.8 µM

Entry `Oc1ccc(/C=N/Nc2nccnc2Cl)c(O)c1` , EC50 reported as 1.63 µM
